This listing pairs molecules with measured viability at 48 h, 10 μg/mL.
test: Cytotoxicity (MTT) assay of single and dual combinatory drugs; type: cell-based; details: human, HYDROXYCHLOROQUINE-AZITHROMYCIN series; 10 μg/mL; read-out: Cell Viability (%)
Assay readout: viability at 48 h, 10 μg/mL (%)

{"columns": ["Molecule", "Readout value"],
 "data": [
  ["CCN(CCO)CCCC(C)Nc1ccnc2cc(Cl)ccc12 (centres unmarked) [HCQ, Hydroxychloroquine]", 94.4],
  ["CC[C@H]1OC(=O)[C@H](C)[C@@H](O[C@H]2C[C@@](C)(OC)[C@@H](O)[C@H](C)O2)[C@H](C)[C@@H](O[C@@H]2O[C@H](C)C[C@H](N(C)C)[C@H]2O)[C@](C)(O)C[C@@H](C)CN(C)[C@H](C)[C@@H](O)[C@]1(C)O", 104]
]}

* * *

Assay: Cytotoxicity (MTT) assay of single and dual combinatory drugs
Type: cell-based
Settings: human, LOPIRITO-DOXYCYCLINE series; 400 μg/mL; read-out: Cell Viability (%)
Procedure: Each tablet containing drugs was triturated and mixed until homogenous. Approximately 50 mg equivalent mass of drugs were weighed and added to dimethyl sulfoxide in order to solubilize the drugs. […] The samples were prepared by diluting the stock solution of each drug with RPMI complete media at an appropriate level of dilution to produce a determined concentration. […] In this study, the cytotoxicity assay was evaluated for single and dual combinatory drugs during a period of 48 hours of drug incubation. […]

{"columns": ["Compound", "viability at 48 h, 400 μg/mL (%)"],
 "data": [
  ["C[C@H]1c2cccc(O)c2C(=O)C2=C(O)[C@]3(O)C(=O)C(C(N)=O)=C(O)[C@@H](N(C)C)[C@@H]3[C@@H](O)[C@@H]21 [DOXY, Doxycycline]", 91.7]
]}

* * *

assay: Cytotoxicity (MTT) assay of single and dual combinatory drugs; assay type: cell-based; conditions: human, FAVIPIRAVIR-AZITHROMYCIN series; 2 μg/mL; read-out: Cell Viability (%)

{"columns": ["Compound", "viability at 48 h, 2 μg/mL / %"],
 "data": [
  ["CC[C@H]1OC(=O)[C@H](C)[C@@H](O[C@H]2C[C@@](C)(OC)[C@@H](O)[C@H](C)O2)[C@H](C)[C@@H](O[C@@H]2O[C@H](C)C[C@H](N(C)C)[C@H]2O)[C@](C)(O)C[C@@H](C)CN(C)[C@H](C)[C@@H](O)[C@]1(C)O [AZI, Azithromycin]", 107],
  ["NC(=O)c1nc(F)c[nH]c1=O [FAVI, Favipiravir]", 104]
]}

* * *

This listing pairs compounds with measured viability at 48 h, 100 μg/mL.
assay: Cytotoxicity (MTT) assay of single and dual combinatory drugs; assay type: cell-based; conditions: human, HYDROXYCHLOROQUINE-FAVIPIRAVIR series; 100 μg/mL; read-out: Cell Viability (%)

{"columns": ["Compound", "Measurement units", "viability at 48 h, 100 μg/mL"],
 "data": [
  ["NC(=O)c1nc(F)c[nH]c1=O", "%", 66.2],
  ["CCN(CCO)CCCC(C)Nc1ccnc2cc(Cl)ccc12 (centres unmarked) [HCQ, Hydroxychloroquine]", "%", 13.3]
]}

* * *

assay: Cytotoxicity (MTT) assay of single and dual combinatory drugs; format: cell-based; conditions: human, HYDROXYCHLOROQUINE-LOPIRITO series; 0.2 μg/mL; read-out: Cell Viability (%)

{"columns": ["Molecule", "viability at 48 h, 0.2 μg/mL / %"],
 "data": [
  ["CCN(CCO)CCCC(C)Nc1ccnc2cc(Cl)ccc12 (stereo not shown) [HCQ, Hydroxychloroquine]", 35.9]
]}

* * *

experiment: Cytotoxicity (MTT) assay of single and dual combinatory drugs; assay type: cell-based; settings: human, FAVIPIRAVIR-AZITHROMYCIN series; 400 μg/mL; read-out: Cell Viability (%)
This listing pairs compounds with measured viability at 48 h, 400 μg/mL.

{"columns": ["Compound", "viability at 48 h, 400 μg/mL [%]"],
 "data": [
  ["NC(=O)c1nc(F)c[nH]c1=O", 126],
  ["CC[C@H]1OC(=O)[C@H](C)[C@@H](O[C@H]2C[C@@](C)(OC)[C@@H](O)[C@H](C)O2)[C@H](C)[C@@H](O[C@@H]2O[C@H](C)C[C@H](N(C)C)[C@H]2O)[C@](C)(O)C[C@@H](C)CN(C)[C@H](C)[C@@H](O)[C@]1(C)O", 90.9]
]}

* * *

tested on: IL-6; assay: IL-6 level of virus-infected Vero cells (ELISA); type: cell-based; settings: 15 μg/mL; 72-h
Assay readout: IL-6 (ng/L)

{"columns": ["Molecule", "Target", "Assay readout", "Measurement units", "Readout value"],
 "data": [
  ["C[C@H]1c2cccc(O)c2C(=O)C2=C(O)[C@]3(O)C(=O)C(C(N)=O)=C(O)[C@@H](N(C)C)[C@@H]3[C@@H](O)[C@@H]21 [DOXY, Doxycycline]", "IL-6", "IL-6", "ng/L", 43.01],
  ["CCN(CCO)CCCC(C)Nc1ccnc2cc(Cl)ccc12 (stereo not shown) [HCQ, Hydroxychloroquine]", "IL-6", "IL-6", "ng/L", 39.80],
  ["CC[C@H]1OC(=O)[C@H](C)[C@@H](O[C@H]2C[C@@](C)(OC)[C@@H](O)[C@H](C)O2)[C@H](C)[C@@H](O[C@@H]2O[C@H](C)C[C@H](N(C)C)[C@H]2O)[C@](C)(O)C[C@@H](C)CN(C)[C@H](C)[C@@H](O)[C@]1(C)O [AZI, Azithromycin]", "IL-6", "IL-6", "ng/L", 565.92],
  ["NC(=O)c1nc(F)c[nH]c1=O [FAVI, Favipiravir]", "IL-6", "IL-6", "ng/L", 68.61]
]}

* * *

test: Cytotoxicity (MTT) assay of single and dual combinatory drugs; type: cell-based; conditions: human, HCQ-FAVI experiment (Fig 10); 48 hours; CompuSyn; n = 3; read-out: CC50

{"columns": ["Molecule", "CC50 at 48 h (µg/mL)"],
 "data": [
  ["CCN(CCO)CCCC(C)Nc1ccnc2cc(Cl)ccc12 (stereo not shown) [HCQ, Hydroxychloroquine]", 11.8]
]}

* * *

Assay: Cytotoxicity (MTT) assay of single and dual combinatory drugs
Assay type: cell-based
Settings: human, HYDROXYCHLOROQUINE-FAVIPIRAVIR series; 2 μg/mL; read-out: Cell Viability (%)
Protocol: Each tablet containing drugs was triturated and mixed until homogenous. Approximately 50 mg equivalent mass of drugs were weighed and added to dimethyl sulfoxide in order to solubilize the drugs. […] The samples were prepared by diluting the stock solution of each drug with RPMI complete media at an appropriate level of dilution to produce a determined concentration. […] In this study, the cytotoxicity assay was evaluated for single and dual combinatory drugs during a period of 48 hours of drug incubation. […]
Assay readout: viability at 48 h, 2 μg/mL (%)

{"columns": ["Compound", "Assay readout", "Readout value"],
 "data": [
  ["CCN(CCO)CCCC(C)Nc1ccnc2cc(Cl)ccc12 (centres unmarked) [HCQ, Hydroxychloroquine]", "viability at 48 h, 2 μg/mL", 81.9],
  ["NC(=O)c1nc(F)c[nH]c1=O [FAVI, Favipiravir]", "viability at 48 h, 2 μg/mL", 71.9]
]}

* * *

This listing pairs compounds with measured viability at 48 h, 100 μg/mL.
experiment: Cytotoxicity (MTT) assay of single and dual combinatory drugs; type: cell-based; conditions: human, HYDROXYCHLOROQUINE-AZITHROMYCIN series; 100 μg/mL; read-out: Cell Viability (%)
Assay readout: viability at 48 h, 100 μg/mL (%)

{"columns": ["Compound", "Readout value"],
 "data": [
  ["CCN(CCO)CCCC(C)Nc1ccnc2cc(Cl)ccc12 (centres unmarked) [HCQ, Hydroxychloroquine]", 46.6],
  ["CC[C@H]1OC(=O)[C@H](C)[C@@H](O[C@H]2C[C@@](C)(OC)[C@@H](O)[C@H](C)O2)[C@H](C)[C@@H](O[C@@H]2O[C@H](C)C[C@H](N(C)C)[C@H]2O)[C@](C)(O)C[C@@H](C)CN(C)[C@H](C)[C@@H](O)[C@]1(C)O", 110]
]}

* * *

assay: Cytotoxicity (MTT) assay of single and dual combinatory drugs; format: cell-based; settings: human, LOPIRITO-DOXYCYCLINE series; 0.2 μg/mL; read-out: Cell Viability (%)

{"columns": ["Compound", "Measurement units", "viability at 48 h, 0.2 μg/mL"],
 "data": [
  ["C[C@H]1c2cccc(O)c2C(=O)C2=C(O)[C@]3(O)C(=O)C(C(N)=O)=C(O)[C@@H](N(C)C)[C@@H]3[C@@H](O)[C@@H]21", "%", 103]
]}

* * *

Experiment: Cytotoxicity (MTT) assay of single and dual combinatory drugs
Format: cell-based
Conditions: human, LOPIRITO-CLARITHROMYCIN series; 400 μg/mL; read-out: Cell Viability (%)
Method: Each tablet containing drugs was triturated and mixed until homogenous. Approximately 50 mg equivalent mass of drugs were weighed and added to dimethyl sulfoxide in order to solubilize the drugs. […] The samples were prepared by diluting the stock solution of each drug with RPMI complete media at an appropriate level of dilution to produce a determined concentration. […] In this study, the cytotoxicity assay was evaluated for single and dual combinatory drugs during a period of 48 hours of drug incubation. […]

{"columns": ["Compound", "viability at 48 h, 400 μg/mL, %"],
 "data": [
  ["CC[C@H]1OC(=O)[C@H](C)[C@@H](O[C@H]2C[C@@](C)(OC)[C@@H](O)[C@H](C)O2)[C@H](C)[C@@H](O[C@@H]2O[C@H](C)C[C@H](N(C)C)[C@H]2O)[C@](C)(OC)C[C@@H](C)C(=O)[C@H](C)[C@@H](O)[C@]1(C)O", 74.3]
]}
